# system_tested: T1, ALK-ECD-myc/his tag protein (human, UniProt Q9UM73 19-1038)
# T1 construct: Expressed in 293/293F cells and purified from conditioned medium; biotin labelled for the soluble panning; also called recombinant ALK-ECD-myc/his tag; ALK-ECD protein; not shown: Myc/His tag
# assay_info: ELISA, ALK-ECD-myc/his coated at 10 μg/mL, anti-human IgG-HRP
value_type: binding result

fully human anti-ALK IgG D10 (antibody, V domains shown, Full length fully human IgG; also called DlO; DlO antibody) VH: EVQLLESGGGLVQPGGSLRLSCAASGFTFSKYGMHWVRQAPGKGLEWVSYIVPSGGYTIYADSVKGRFTISRDNSKNTLYLQMNSLRAEDTAMYYCAKLAGDWFDPWGQGTLVTVSS VL: DIQMTQSPLSLPVTLGQPASISCRSSQSLVHSNGNTYLSWFHQRPGQSPRRLIHKISDRVSGVPDRFSGSGSGTDFTLKISRLEAEDVGIYYCMQGTHWPPTFGQGTKVEIK | binds
fully human anti-ALK IgG C1 (antibody, V domains shown, Full length fully human IgG; also called Cl) VH: EVQLLESGGGLVQPGGSLRLSCAASGFTFSMYPMDWVRQAPGKGLEWVSRISSSGGTTEYADSVKGRFTISRDNSKNTLYLQMNSLRAEDTAVYYCTRRFCISGVCPFEYWGQGTLVTVSS VL: QSALTQPPSASGTPGQRVTISCSGSSSNIGSNTVNWYQQLPGTAPKLLIYSNNQRPSGVPDRFSGSKSGTSASLAISGLQSEDEADYYCQSYDNSLTNFVFGSGTKVTVLG | binds
fully human anti-ALK IgG E1 (antibody, V domains shown, Full length fully human IgG; also called El) VH: EVQLLESGGGLVQPGGSLRLSCAASGFTFSWYSMWWVRQAPGKGLEWVSSIRPSGGKTTYADSVKGRFTISRDNSKNTLYLQMNSLRAEDTAVYYCAKGLDPNGIAAAGGEGYWGQGTLVTVSS VL: QSALTQPASVSGSPGQSITITCSGDALPKQFGYWYQQKPGQAPILVIYKDTERPSGIPERFSGSSSGTIVTLTISGVRAEDEADYYCQSADSSGNSVVFGGGTKLTVLG | binds

The origin of these recorded values is patent WO2007059300A2.
